# systemName: T1, PDZD2_2, O15018
# T1 sequence (O15018 329-429, limits assumed, looked up): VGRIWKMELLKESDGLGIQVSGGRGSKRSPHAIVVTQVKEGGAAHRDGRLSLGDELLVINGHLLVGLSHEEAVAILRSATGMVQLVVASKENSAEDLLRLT
# assayName: holdup assay
# Design: key: below the threshold = too weak to quantify, mostly under pKd 3.1 to 4
# conditionDescription: plain residues with an end cap or a label only (N-terminal biotin on a linker: ado-ado)
Decision: pKd >= 4 yields Fulfilled, all other cases yield Not fulfilled.

Say whether DGVNEKVSCV [HTR2A, P28223] shows pKd of 4 or more.
Fulfilled

In plain terms: is recorded pKd at least 4 for AAVENKVTDL [PLXNB1, O43157] ?
Fulfilled

Is reported pKd greater than or equal to 4 here: NTANRRTTPV [CACNG2, Q9Y698]
Not fulfilled

Please tell me: is the binder RFQQRMQTHV [KIRREL1, Q96J84] at or over 4 in terms of pKd?
Fulfilled

I'd appreciate it if you could say whether RDPPAEWTRV [PTPN18, Q99952] has pKd at least equal to 4.
Fulfilled

All figures here come from paper PMC9482650.
